- targetOrTestSystem: fMet-Leu-Phe receptor (Homo sapiens)
- testDetails: FPR1 fluorescent ligand binding inhibitors, SAR follow-up, selectivity assay for FPRL1 ligand SAR project, cell-based, single concentration (AID 763)
- studyConditions: FPR1-expressing cells, stronger effect = higher value; at 5.4 µM unless noted
Activity calls are given as the source filed them. No rule for the calls is given here.
Field: inhibition. Provide a value for each of the compounds that follow.

// below: answered compounds
Cc1ccccc1N1CCN(c2nc(-c3ccccc3)c3cc(Br)ccc3n2)CC1 ... 3.5% [at 4.8 µM] (inactive)
CC(=O)N1CCN(c2nc(-c3ccccc3)c3cc(Cl)ccc3n2)CC1 ... 2.2% [at 6.1 µM] (inactive)
CN1CCN(c2nc(-c3ccccc3)cc(C(F)(F)F)n2)CC1 ... -5.9% [at 6.9 µM] (inactive)
Cc1ccccc1C(=O)N1CCN(c2nc(-c3ccccc3)c3cc(Cl)ccc3n2)CC1 ... -3.4% [at 5 µM] (inactive)
COc1ccccc1-c1cc(C(F)(F)F)nc(N2CCN(c3ccccc3)CC2)n1 ... -10.8% (inactive)

Consider the following items and state reported inhibition for each.
1. O=C(c1ccc(Cl)cc1)N1CCN(c2nc(-c3ccccc3)c3ccccc3n2)CC1
2. Clc1ccccc1N1CCN(c2nc(-c3ccccc3)c3cc(Br)ccc3n2)CC1
3. COc1ccc(-c2cn3cccnc3n2)cc1NC(=O)CCc1ccccc1
4. Cc1ccc(C(=O)N2CCN(c3nc(-c4ccccc4)c4cc(Br)ccc4n3)CC2)cc1

### Response
["-1.9% [at 5.2 µM] (inactive)", "2.1% [at 4.6 µM] (inactive)", "6.4% [at 6 µM] (inactive)", "-4.3% [at 4.6 µM] (inactive)"]

Consider the following items and state reported inhibition for each.
1. COc1ccc(-c2cn3cccnc3n2)cc1NC(=O)c1ccc(C)c(C)c1
2. COc1ccc(-c2cn3cccnc3n2)cc1NC(=O)c1ccccc1Br
3. COc1ccc(-c2cn3cccnc3n2)cc1NC(=O)Cc1cccc(C)c1
4. Clc1cccc(-c2nc(N3CCN(Cc4ccccc4)CC3)nc3c2COc2ccccc2-3)c1
5. CCOC(=O)N1CCN(c2nc(-c3ccc(OC)cc3)cc(C(F)(F)F)n2)CC1
6. COc1ccc(-c2cn3cccnc3n2)cc1NC(=O)c1ccc(Cl)cc1
7. COc1ccc(-c2cn3cccnc3n2)cc1NC(=O)c1ccccc1OC
8. CCOC(=O)N1CCN(c2nc(-c3ccc(Cl)cc3)cc(C(F)(F)F)n2)CC1

### Response
1: -2.6% [at 6 µM] (inactive); 2: 0.1% [at 5.3 µM] (inactive); 3: 4.7% [at 6 µM] (inactive); 4: 5.3% [at 4.7 µM] (inactive); 5: -5.3% (inactive); 6: -0.5% [at 5.9 µM] (inactive); 7: 3.8% [at 5.9 µM] (inactive); 8: -2.8% (inactive)

Consider the following items and state reported inhibition for each.
1. O=C(N1CCN(c2nc(-c3ccccc3)c3cc([N+](=O)[O-])ccc3n2)CC1)C(F)(F)F
2. CC(C)(C)OC(=O)N1CCN(c2nc(-c3ccccc3)c3cc(Br)ccc3n2)CC1
3. COc1ccccc1-c1cc(C(F)(F)F)nc(N2CCN(c3ccc(F)cc3)CC2)n1
4. COc1ccc(-c2cc(C(F)(F)F)nc(N3CCN(C(c4ccccc4)c4ccccc4)CC3)n2)cc1OC

### Response
["-1.2% [at 5.2 µM] (inactive)", "3.5% [at 4.7 µM] (inactive)", "-2.5% [at 5.1 µM] (inactive)", "-2.6% [at 4.2 µM] (inactive)"]

* * *

Field: inhibition. Provide a value for each of the compounds that follow.
- targetOrTestSystem: fMet-Leu-Phe receptor (Homo sapiens)
- testDetails: FPR1 fluorescent ligand binding inhibitors, SAR follow-up, selectivity assay for FPRL1 ligand SAR project, cell-based, single concentration (AID 763)
- studyConditions: FPR1-expressing cells, stronger effect = higher value; at 5.4 µM unless noted
Activity calls are given as the source filed them. No rule for the calls is given here.

// below: answered compounds
CC(=O)N1CCN(c2nc(-c3ccccc3)c3ccccc3n2)CC1 ... 2.3% [at 6.7 µM] (inactive)
COc1ccc(-c2cn3cccnc3n2)cc1NC(=O)c1cccc(Br)c1 ... 0.1% [at 5.3 µM] (inactive)
CCCCN1CCN(c2nc(-c3ccccc3)c3cc(C)ccc3n2)CC1 ... -1.5% [at 5.6 µM] (inactive)
COc1ccc(-c2cn3cccnc3n2)cc1NC(=O)CCC1CCCCC1 ... -4.2% [at 5.9 µM] (inactive)
COc1ccc(-c2cc(C(F)(F)F)nc(N3CCN(c4ccc(F)cc4)CC3)n2)cc1OC ... -1.4% [at 4.8 µM] (inactive)
CCOc1ccc(C(=O)Nc2cc(-c3cn4cccnc4n3)ccc2OC)cc1 ... -6.6% [at 5.7 µM] (inactive)

Consider the following items and state reported inhibition for each.
1. COc1ccc(-c2cn3cccnc3n2)cc1NC(=O)c1cccc(C)c1
2. FC(F)(F)c1nc(N2CCN(Cc3ccccc3)CC2)nc2c1CCCCC2
3. CCOC(=O)N1CCN(c2nc(-c3ccc(OC)c(OC)c3)cc(C(F)(F)F)n2)CC1

### Response
1: -4.1% [at 6.2 µM] (inactive); 2: 0.9% [at 5.7 µM] (inactive); 3: 4.1% [at 5.1 µM] (inactive)

Consider the following items and state reported inhibition for each.
1. Fc1ccc(-c2cc(C(F)(F)F)nc(N3CCN(c4cccc(Cl)c4)CC3)n2)cc1
2. CC1CCc2nc(N3CCN(Cc4ccccc4)CC3)nc(C(F)(F)F)c2C1 (configuration not stated)
3. Cc1nc2c3c(-c4ccccc4)nc(N4CCN(C)CC4)nc3nn2c(C)c1CCC(=O)O

### Response
1: 5.6% [at 5.1 µM] (inactive); 2: 4.7% [at 5.7 µM] (inactive); 3: 0% [at 5 µM] (inactive)

Consider the following items and state reported inhibition for each.
1. Cc1ccc(-c2cn3cccnc3n2)cc1NC(=O)C(C)C
2. FC(F)(F)c1cc(-c2ccco2)nc(N2CCN(C(c3ccccc3)c3ccccc3)CC2)n1
3. COc1ccccc1-c1cc(C(F)(F)F)nc(N2CCN(C)CC2)n1
4. COc1ccc(-c2nc(N3CCN(C)CC3)[nH]c(=O)c2C#N)cc1
5. CCOC(=O)N1CCN(c2nc(-c3ccccc3)cc(C(F)(F)F)n2)CC1
6. CCC(=O)Nc1cc(-c2cn3cccnc3n2)ccc1OC
7. O=C(c1cccc(F)c1)N1CCN(c2nc(-c3ccc(F)cc3)cc(C(F)(F)F)n2)CC1
8. CCC(CC)C(=O)Nc1cc(-c2cn3cccnc3n2)ccc1OC

### Response
1. 3.7% [at 7.6 µM] (inactive)
2. 0.5% [at 4.8 µM] (inactive)
3. 5% [at 6.3 µM] (inactive)
4. -1.7% [at 6.8 µM] (inactive)
5. 1.5% [at 5.8 µM] (inactive)
6. 5% [at 7.5 µM] (inactive)
7. -0.1% [at 5 µM] (inactive)
8. -5.9% [at 6.6 µM] (inactive)

Consider the following items and state reported inhibition for each.
1. COc1ccc(-c2cn3cccnc3n2)cc1NC(=O)c1ccccc1F
2. CCCC(CCC)C(=O)Nc1cc(-c2cn3cccnc3n2)ccc1OC
3. O=C(O)/C=C\C(=O)N1CCN(c2nc(-c3ccccc3)c3cc(Br)ccc3n2)CC1
4. CC1(C)CC(=O)c2cnc(N3CCN(Cc4ccc5c(c4)OCO5)CC3)nc2C1

### Response
1. 2.4% [at 6.1 µM] (inactive)
2. -2% [at 6.1 µM] (inactive)
3. -5.7% [at 4.8 µM] (inactive)
4. 11.3% [at 5.6 µM] (inactive)

* * *

- targetOrTestSystem: fMet-Leu-Phe receptor (Homo sapiens)
- testDetails: FPR1 fluorescent ligand binding inhibitors, SAR follow-up, selectivity assay for FPRL1 ligand SAR project, cell-based, single concentration (AID 763)
- studyConditions: FPR1-expressing cells, stronger effect = higher value; at 5.4 µM unless noted
Calls of active or inactive are those of the source. No rule for the calls is given here.
readoutKind: inhibition

// below: answered molecules
CCCCOc1ccc(C(=O)Nc2cc(-c3cn4cccnc4n3)ccc2OC)cc1 ... 2.6% [at 5.3 µM] (inactive)
COc1ccc(-c2cc(C#N)nc(N3CCN(c4ccccc4)CC3)n2)cc1 ... 2.6% [at 6 µM] (inactive)
CCN1CCN(c2nc(-c3cccc(Cl)c3)c3c(n2)-c2ccccc2OC3)CC1 ... -9.4% [at 5.5 µM] (inactive)

### Prompt GET inhibition where system = fMet-Leu-Phe receptor (Homo sapiens) and item = N#Cc1cc(-c2ccccc2)nc(N2CCN(c3ccccc3)CC2)n1
### Response -6% [at 6.5 µM] (inactive)

* * *

Field: inhibition. Provide a value for each of the compounds that follow.
- targetOrTestSystem: fMet-Leu-Phe receptor (Homo sapiens) (UniProt P21462)
- Sequence (P21462 whole entry, looked up): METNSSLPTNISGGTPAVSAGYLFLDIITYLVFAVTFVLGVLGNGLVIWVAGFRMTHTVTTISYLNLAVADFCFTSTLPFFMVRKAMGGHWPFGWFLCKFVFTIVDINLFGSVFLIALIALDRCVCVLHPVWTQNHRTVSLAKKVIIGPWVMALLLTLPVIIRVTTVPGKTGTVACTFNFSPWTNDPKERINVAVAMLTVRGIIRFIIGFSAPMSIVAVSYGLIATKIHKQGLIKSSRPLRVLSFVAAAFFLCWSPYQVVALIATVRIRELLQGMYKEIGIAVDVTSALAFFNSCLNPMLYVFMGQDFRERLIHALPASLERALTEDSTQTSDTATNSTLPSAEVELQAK
- testDetails: FPR1 fluorescent ligand binding inhibitors, SAR follow-up, selectivity assay for FPRL1 ligand SAR project, cell-based, single concentration (AID 763)
- studyConditions: FPR1-expressing cells, stronger effect = higher value; at 5.4 µM unless noted
Calls of active or inactive are those of the source. The rule behind the calls is not given here.

// below: answered compounds
CCC(=O)Nc1cccc(-c2nc3ncccn3c2C)c1 ... 5.6% [at 7.9 µM] (inactive)
FC(F)(F)c1cc(-c2ccccc2)nc(N2CCN(C(c3ccccc3)c3ccccc3)CC2)n1 ... -4.1% [at 4.7 µM] (inactive)
COc1ccc(C2CC(=O)c3cnc(N4CCN(Cc5ccc6c(c5)OCO6)CC4)nc3C2)c(OC)c1 (stereo not given) ... -4.7% [at 4.4 µM] (inactive)
COc1ccc(-c2cc(C(F)(F)F)nc(N3CCN(Cc4ccccc4)CC3)n2)cc1OC ... 4.7% [at 4.9 µM] (inactive)
O=C(c1ccccc1Cl)N1CCN(c2nc(-c3ccccc3)c3cc(Cl)ccc3n2)CC1 ... -3.1% [at 4.8 µM] (inactive)
Cc1c(-c2cccc(NC(=O)C(C)(C)C)c2)nc2ncccn12 ... 4.9% [at 7.2 µM] (inactive)

Consider the following items and state reported inhibition for each.
1. CC(C)(C)OC(=O)N1CCN(c2nc(-c3ccccc3Cl)c3cc(Br)ccc3n2)CC1
2. O=C(O)CCCC(=O)N1CCN(c2nc(-c3ccccc3)c3cc(Br)ccc3n2)CC1
3. O=C(O)CCC(=O)N1CCN(c2nc(-c3ccccc3Cl)c3cc(Br)ccc3n2)CC1
4. COc1ccc(-c2cn3cccnc3n2)cc1NC(=O)c1ccccc1C(F)(F)F

### Response
["8.5% [at 4.4 µM] (inactive)", "-1.2% [at 4.6 µM] (inactive)", "2.5% [at 4.4 µM] (inactive)", "-3.2% (inactive)"]
